Assay: Phase I study: pharmacokinetics of BI 1015550 in plasma and urine
Type: in vivo, human
Details: gMean; MRD 6 mg twice daily, after first dose, fed, n=8; gCV 28.2%

[
  {
    "molecule": "[O-][S+]1CCc2nc(N3CCC(c4ncc(Cl)cn4)CC3)nc(NC3(CO)CCC3)c21 (stereo not shown) [BI 1015550]",
    "Cmax, nM": 103
  }
]

----------
Assay: Phase I study: pharmacokinetics of BI 1015550 in plasma and urine
Type: in vivo, human
Details: gMean; MRD 12 mg twice daily, after first dose, fed, n=8; gCV 29.9%

[
  {
    "molecule": "[O-][S+]1CCc2nc(N3CCC(c4ncc(Cl)cn4)CC3)nc(NC3(CO)CCC3)c21 (stereo not shown)",
    "Cmax, nM": 229
  }
]

Data credit: paper PMC9589333
